Source of measurements: the Immune Epitope Database (IEDB)

Biological target: HLA-A*24:02
Experiment: IEDB peptide-MHC binding, purified MHC/competitive/radioactivity; filed as Kd, often an IC50 or EC50 that approximates it; bounds were set here for any values at or beyond the usual limits of such assays
Settings: source organism: Mammarenavirus tacaribeense
Outcome measure: pKd
// pKd is dimensionless: -log10 of concentration (M)

Could you share which pKd value was measured for LYGLITEQF ? 7.81

----------
Target: HLA-B*51:01
Assay: IEDB peptide-MHC binding, purified MHC/competitive/fluorescence; filed as Kd, often an IC50 or EC50 that approximates it; bounds were set here for any values at or beyond the usual limits of such assays
Details: source organism: Escherichia coli 536
pKd: −log10 of the molar value.
Outcome measure: pKd

Could you share which pKd value was measured for RAMDVYCHR ? ≤ 4.70

----------
Attribute: pKd
Target: HLA-B*35:01
Assay: IEDB peptide-MHC binding, purified MHC/competitive/radioactivity; filed as Kd, often an IC50 or EC50 that approximates it; bounds were set here for any values at or beyond the usual limits of such assays
Settings: source organism: Triticum aestivum
// pKd is dimensionless: -log10 of concentration (M)

Example entries begin here.
- Sequence input: "LPYPQPQLPY"
  Outcome measure: "pKd"
  Test result: 9.31
- Sequence input: "QPFPSQQPYL"
  Outcome measure: "pKd"
  Test result: 6.36

Let us examine a further case.
Could you share which pKd value was measured for IPCRDVVL ? 4.77

----------
Target: HLA-A*31:01
Test: IEDB peptide-MHC binding, purified MHC/direct/fluorescence; filed as Kd, often an IC50 or EC50 that approximates it; bounds were set here for any values at or beyond the usual limits of such assays
Settings: source organism: Francisella tularensis subsp. tularensis FSC198
Outcome measure: Kd (nM)
Give a bare numeral; the unit nM is implied.

Could you share which Kd value was measured for SFSSGWSPR ? 3.4

----------
Target: HLA-A*24:02
Assay: IEDB peptide-MHC binding, purified MHC/competitive/fluorescence; bounds were set here for any values at or beyond the usual limits of such assays
Details: source organism: Sudan ebolavirus
Attribute: pIC50
// pIC50 is dimensionless: -log10 of concentration (M)

Example entries begin here.
- Sequence input: "RDKFRKSSF"
  pIC50: 4.45
- Sequence input: "FRKSSFFVW"
  pIC50: 5.62
- Sequence input: "INQIIHDFI"
  pIC50: 5.56
- Sequence input: "TITETAATI"
  pIC50: 4.32
- Sequence input: "LNDTIHLHQ"
  pIC50: 4.47

Could you share which pIC50 value was measured for AIDFLLRRW ? 4.41

----------
Biological target: HLA-A*02:11
Assay: IEDB peptide-MHC binding, purified MHC/direct/fluorescence; filed as Kd, often an IC50 or EC50 that approximates it; bounds were set here for any values at or beyond the usual limits of such assays
Conditions: source organism: Bacillus cereus 03BB108
Outcome measure: Kd (nM)
Give a bare numeral; the unit nM is implied.

Could you share which Kd value was measured for KVQEWYLSY ? 308

----------
Target: HLA-B*58:01
Assay: IEDB peptide-MHC binding, purified MHC/direct/fluorescence; filed as Kd, often an IC50 or EC50 that approximates it; bounds were set here for any values at or beyond the usual limits of such assays
Details: source organism: Aggregatibacter actinomycetemcomitans
pKd: −log10 of the molar value.
Outcome measure: pKd

Could you share which pKd value was measured for KYDDRIQSQ ? ≤ 4.70

----------
Molecular target: HLA-A*11:01
Assay: IEDB peptide-MHC binding, purified MHC/competitive/radioactivity; filed as Kd, often an IC50 or EC50 that approximates it; bounds were set here for any values at or beyond the usual limits of such assays
Settings: source organism: Dengue virus 1 Brazil/97-11/1997
Outcome measure: pKd
// pKd is dimensionless: -log10 of concentration (M)

- Sequence input: "VVYDAKFEK"
  pKd: 7.37

Let us examine a further case.
Could you share which pKd value was measured for ALLATSIFK ? 7.63

----------
Target: HLA-B*15:01
Assay: IEDB peptide-MHC binding, purified MHC/competitive/fluorescence; filed as Kd, often an IC50 or EC50 that approximates it; bounds were set here for any values at or beyond the usual limits of such assays
Conditions: source organism: Escherichia coli 536
Outcome measure: pKd
// pKd is dimensionless: -log10 of concentration (M)

Could you share which pKd value was measured for FSPRLCRPF ? 6.49

----------
Target: HLA-B*15:42
Experiment: IEDB peptide-MHC binding, purified MHC/competitive/fluorescence; filed as Kd, often an IC50 or EC50 that approximates it; bounds were set here for any values at or beyond the usual limits of such assays
Conditions: source organism: Yersinia pestis FV-1
Outcome measure: Kd

Could you share which Kd value was measured for SVQWFRLPR ? ≥ 5 µM

----------
Target: HLA-A*02:06
Assay: IEDB peptide-MHC binding, purified MHC/direct/fluorescence; filed as Kd, often an IC50 or EC50 that approximates it; bounds were set here for any values at or beyond the usual limits of such assays
Details: source organism: Vibrio vulnificus CMCP6
Outcome measure: pKd
// pKd is dimensionless: -log10 of concentration (M)

Could you share which pKd value was measured for GLKELGDWV ? 6.84

----------
Biological target: HLA-B*07:02
Assay: IEDB peptide-MHC binding, purified MHC/competitive/fluorescence; bounds were set here for any values at or beyond the usual limits of such assays
Conditions: source organism: Gorilla gorilla gorilla
Outcome measure: pIC50
// pIC50 is dimensionless: -log10 of concentration (M)

Could you share which pIC50 value was measured for RYSHWTKL ? 4.76

----------
Biological target: HLA-B*35:01
Test: IEDB peptide-MHC binding, purified MHC/competitive/fluorescence; filed as Kd, often an IC50 or EC50 that approximates it; bounds were set here for any values at or beyond the usual limits of such assays
Settings: source organism: Vaccinia virus WR
Attribute: Kd
Give a bare numeral; the unit nM is implied.

- Sequence input: "SLFTEQAFY"
  Experimental system: "HLA-B*35:01"
  U: "nM"
  Test result: 1150

Let us examine a further case.
Record IHIPGDTLF : what is its Kd with HLA-B*35:01? 366

----------
Molecular target: HLA-A*31:01
Experiment: IEDB peptide-MHC binding, purified MHC/competitive/radioactivity; filed as Kd, often an IC50 or EC50 that approximates it; bounds were set here for any values at or beyond the usual limits of such assays
Conditions: source organism: Mammarenavirus brazilense
Outcome measure: Kd (µM)
Give a bare numeral; the unit µM is implied.

Could you share which Kd value was measured for LNTPYCNYTK ? 6.41

----------
Target: HLA-A*26:01
Test: IEDB peptide-MHC binding, purified MHC/direct/fluorescence; filed as Kd, often an IC50 or EC50 that approximates it; bounds were set here for any values at or beyond the usual limits of such assays
Conditions: source organism: Influenza A virus(A/swine/Shandong/fNY/2003(H9N2))
pKd: −log10 of the molar value.
Outcome measure: pKd

Could you share which pKd value was measured for NPALRMKWM ? ≤ 4.70

----------
Molecular target: HLA-B*40:01
Assay: IEDB peptide-MHC binding, purified MHC/direct/fluorescence; filed as Kd, often an IC50 or EC50 that approximates it; bounds were set here for any values at or beyond the usual limits of such assays
Settings: source organism: Orthohantavirus negraense
Outcome measure: Kd

Could you share which Kd value was measured for MSRKLHRYI ? ≥ 20 µM

----------
Attribute: pKd
Target: HLA-A*33:01
Test: IEDB peptide-MHC binding, purified MHC/competitive/radioactivity; filed as Kd, often an IC50 or EC50 that approximates it; bounds were set here for any values at or beyond the usual limits of such assays
Conditions: source organism: SARS coronavirus Tor2
// pKd is dimensionless: -log10 of concentration (M)

- Sequence input: "FFASFYYIWK"
  pKd: 7.22
- Sequence input: "AMPNLYKMQR"
  pKd: 4.93
- Sequence input: "GFNTLKPIFK"
  pKd: 4.71

Could you share which pKd value was measured for QTMLFTMLRK ? 6.57

Could you share which pKd value was measured for VVYRGTTTYK ? 5.16

Could you share which pKd value was measured for SLQVCVQTVR ? 5.29

Could you share which pKd value was measured for CMTSCCSCLK ? 5.73

Could you share which pKd value was measured for DQAMTQMYK ? 5.07

Could you share which pKd value was measured for LTSMKYFVK ? 6.03

----------
Target: HLA-B*08:01
Assay: IEDB peptide-MHC binding, purified MHC/direct/fluorescence; filed as Kd, often an IC50 or EC50 that approximates it; bounds were set here for any values at or beyond the usual limits of such assays
Conditions: source organism: Cryptosporidium parvum
pKd: −log10 of the molar value.
Outcome measure: pKd

Could you share which pKd value was measured for WLPWIPQLI ? ≤ 4.70

----------
Target: HLA-B*51:01
Test: IEDB peptide-MHC binding, purified MHC/competitive/fluorescence; filed as Kd, often an IC50 or EC50 that approximates it; bounds were set here for any values at or beyond the usual limits of such assays
Conditions: source organism: Pan troglodytes
Outcome measure: Kd

Could you share which Kd value was measured for FLFDRLTNG ? ≥ 20 µM
